# System: HT22 cells
# Protocol Text: Oxidative glutamate toxicity in HT22 cells, MTT assay
# Assay type: cell-based, mouse
# Experimental Parameters: Mus musculus, HT-22; HT22 cells, 5 mM glutamate, 20 h, MTT assay; read-out: concentration of half inhibition (IC50) of oxidative glutamate toxicity

Compound: Nc1ccccc1
IC50 (µM): 94
--
Compound: Nc1ccc(Nc2ccccc2)cc1 [D2]
IC50 (µM): 0.026
